assay: gradient 5% acetonitrile 3 min, to 50% in 2 min, to 85% in 15 min, held 3 min, 100 µL/min; settings: column: Zorbax Extend-C18 2.1 x 50 mm; eluents: water / acetonitrile, 0.1% formic acid
parameter measured: RP-LC retention time (s)

CCOc1ccc(NC(=O)COc2cc(C(=O)OC)nc3ccc(OC)cc23)cc1    817
CN1C(=O)c2cc(C(=O)NCCCc3ccccc3)nn2CC1(C)C(=O)NCc1ccc(F)cc1 (centres undefined)    813
O=C(NC1CCCCC1)C1CCN(C(=O)c2ncn3c2COC(c2ccc(F)cc2)C3)CC1 (centres undefined)    784
Cc1ccc(CNC(=O)c2ccc3c(c2)CCN3C(=O)C2CC2)cc1    824
